# credit: paper PMC4042406

# Test system: NOP2 MM cell line
# TEST SUMMARY: MTT colorimetric survival assay
# Assay type: cell-based, human
# STUDY CONDITIONS: read-out: EC50 (viability), NOP2, 0-4 μM, 48 hrs
pEC50: −log10 of the molar value.
MEASUREMENT NAME: pEC50

# RECORD SMILES, REPORTED VALUE
data = [
    ("CS(=O)(=O)N1CCC(NC(=O)c2[nH]ncc2NC(=O)c2c(Cl)cccc2Cl)CC1", "< 5.40"),
]

* * *

# Test system: immortalized hepatocyte cell line THLE-3
# TEST SUMMARY: MTT viability of immortalized hepatocytes
# Assay type: cell-based
# STUDY CONDITIONS: read-out: calculated EC50 (viability); immortalized hepatocytes THLE-3
pEC50: −log10 of the molar value.
MEASUREMENT NAME: pEC50

# COMPOUND, MEASUREMENT NAME, REPORTED VALUE
measured = [
    ("CS(=O)(=O)N1CCC(NC(=O)c2[nH]ncc2NC(=O)c2c(Cl)cccc2Cl)CC1 [LCQ195]", "pEC50", "< 5.40"),
]
